B1: glmS ribozyme (parent)
chain: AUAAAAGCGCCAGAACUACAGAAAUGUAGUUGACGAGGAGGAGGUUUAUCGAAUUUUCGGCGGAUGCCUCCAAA

variants of: B1; test: self-cleavage kobs at 2500 uM GlcN6P; higher = faster cleavage; RNA array; settings: with glucosamine-6-phosphate
Fewer inactive variants are shown than the library holds.
metric.name: self-cleavage kobs at 2500 uM GlcN6P (s⁻¹)
Answer in s⁻¹, number only, no unit symbol.

# mutation.label, self-cleavage kobs at 2500 uM GlcN6P / s⁻¹
rows = [
    ("A15U A39G A52G", 0.000162),
    ("U45G C70A", 0.000364),
    ("A42G G66A", 0.00984),
    ("C10U A53G G66U C68G", "4.34e-05"),
    ("U54C G66A", 0.00593),
    ("U45A U46G", 0.0366),
]

Q) Item A12U G32C C50G C70G : provide self-cleavage kobs at 2500 uM GlcN6P
A) 0.000257

Q) Item A12U G44A : provide self-cleavage kobs at 2500 uM GlcN6P
A) 0.00103

Ref: the supplement of paper PMC7125110
